Recorded measurements of TGI, one per entry
Test system: OVCAR-4 ovarian
Assay: NCI tumour cell line growth inhibition, 48 h

The following compounds have reported results that may help.
CC1(C)[C@@H]2CC[C@]1(C)[C@H](OC(=O)/C=C/c1ccccc1)C2 :: 55.1 µM
CC1(C)S[C@@H]2[C@H](N3C(=O)c4ccccc4C3=O)CN2[C@H]1NC(=O)N[C@@H]1N2C[C@@H](N3C(=O)c4ccccc4C3=O)[C@H]2SC1(C)C :: > 100 µM
CSc1nc(C)cc(Nc2ccc(O)c(CN3CCOCC3)c2)n1 :: > 100 µM
CO[C@H]1C=CO[C@@]2(C)Oc3c(C)c(O)c4c(O)c(c(CN5CCN(C)CC5)c(O)c4c3C2=O)NC(=O)/C(C)=C\C=C[C@H](C)[C@H](O)C(C)[C@@H](O)C(C)[C@H](OC(C)=O)[C@@H]1C (some centres not stated) :: > 100 µM
COC(=O)c1ccc2c(c1)C(=O)c1c-2n(CCCCl)c(=O)c2cc([N+](=O)[O-])ccc12 :: > 100 µM

query: State, for OVCAR-4 ovarian, measured TGI of the compound listed here: COC(OC)c1cc2c(cc1C=O)OCO2
result: > 100 µM

query: State, for OVCAR-4 ovarian, measured TGI of the compound listed here: CCCCCCCCCCCC(=O)OC[C@H](C[As](=O)(O)O)OC(=O)CCCCCCCCCCC
result: 37.7 µM

query: State, for OVCAR-4 ovarian, measured TGI of the compound listed here: CSC1(C)C(=O)Nc2c(OCc3ccccc3)cc([N+](=O)[O-])cc21 (configuration not stated)
result: > 100 µM

query: State, for OVCAR-4 ovarian, measured TGI of the compound listed here: O=S(=O)(CCN1CCOCC1)Nc1cc(-c2ccc3ncnc(Nc4ccc(F)c(Cl)c4)c3c2)cnc1Cl
result: 22.5 µM

query: State, for OVCAR-4 ovarian, measured TGI of the compound listed here: CC(O)C1(CNc2cc(Cl)nc(N)n2)CCCCC1 (configuration not stated)
result: > 100 µM

query: State, for OVCAR-4 ovarian, measured TGI of the compound listed here: NNC(=O)CC(=O)Nc1cccc(Cl)c1
result: > 100 µM

query: State, for OVCAR-4 ovarian, measured TGI of the compound listed here: Cc1cccc(Br)[n+]1[O-]
result: > 100 µM

* * *

Tested on: TK-10 renal
Assay: NCI tumour cell line growth inhibition, 48 h; in the data active means GI50 below about 0.43 µM; inactive means the rest
Allowed answers: active, inactive

COC(=O)c1ccc2c(c1)C(=O)c1c-2n(CCCCl)c(=O)c2cc([N+](=O)[O-])ccc12 :: inactive

query: Per the records of this test, what outcome belongs to CC(=O)/C(=C/c1ccccc1)C(=O)CC(C)C ?
result: inactive

query: Per the records of this test, what outcome belongs to Oc1ccc(Nc2ccc3ccccc3c2)cc1 ?
result: inactive

query: Per the records of this test, what outcome belongs to N#Cc1c(NCc2ccccc2)nc(NCc2ccccc2)c(C#N)c1-c1ccc(O)cc1 ?
result: inactive

query: Per the records of this test, what outcome belongs to CCN(CC)CCCC(C)Nc1ccnc2cc(Cl)ccc12 (stereo unspecified) ?
result: inactive

query: Per the records of this test, what outcome belongs to COc1cccc(/C=C/C(=O)c2ccc(SC)cc2)c1OC ?
result: inactive

query: Per the records of this test, what outcome belongs to O=C(CC1(O)C(=O)N(Cc2ccccc2)c2ccc(Cl)cc21)c1ccc(C(=O)NCC2CCC3(CC2)OOC2(CCCCC2)OO3)cc1 (stereo unspecified) ?
result: active

query: Per the records of this test, what outcome belongs to NCCc1ccc(S(=O)(=O)F)cc1 ?
result: inactive

query: Per the records of this test, what outcome belongs to O=C(CCl)NCCNc1nccc(Nc2ccc(S(=O)(=O)Nc3ccccn3)cc2)n1 ?
result: inactive

query: Per the records of this test, what outcome belongs to Oc1ccc(O)c(-c2cn3c(n2)SCC3)c1 ?
result: inactive

query: Per the records of this test, what outcome belongs to Cn1c(=O)c(Oc2ccc(F)cc2F)cc2cnc(NC(C)(C)CO)nc21 ?
result: inactive
